Below: a set of entries, each annotated with reported protein stability index.
B1: TRIM55 (parent)
chain: YKSFSKEQQTMDNLEKQLICPICL

Variants of: B1
Experiment: protein stability index of a GFP-peptide fusion (GPS, HEK-293T) (PSI 1-6); higher = more stable;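 note: lentivirally expressed fusions sorted by FACS into six bins by GFP to DsRed ratio, PSI derived from sequencing read proportions per bin multiplied by bin number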
Settings: c terminus: a fixed tail appended
Quick one: just the number, no unit, thanks!

{"columns": ["SEQUENCE STRING", "protein stability index"],
 "data": [
  ["YKSFSKEQQTMDNLEKQLACPICL [I19A]", 1.99],
  ["YKSFSKEQQVMDNLEKQLICPICL [T10V]", 2.04]
]}

In: Entry under review: YKSFSKEQQTMDNLEKQFICPICL [L18F] . Reported protein stability index?
Out: 2.55

In: Find the recorded protein stability index belonging to YMSFSKEQQTMDNLEKQLICPICL [K2M] and report it.
Out: 2.1

In: Recorded protein stability index of YKSFSKEQQTMDNAEKQLICPICL [L14A] , please.
Out: 3.03
